Tested on: conscious dogs (beagles)
Experiment: Effect on heart rate and arterial blood pressure of conscious dogs
Assay type: in vivo, dog
Conditions: edible oil + 2% DMSO, 24 mg/kg oral, 150 min; preliminary value 79
measured_metric: HR

[Q] Quick check: HR on conscious dogs (beagles), item c1ccn2c(=Nc3ccncc3)snc2c1 ?
[A] 82 beats/min

* * *

Tested on: conscious dogs (beagles)
Assay: Effect on heart rate and arterial blood pressure of conscious dogs
Type: in vivo, dog
Conditions: edible oil + 2% DMSO, 24 mg/kg oral, 30 min; preliminary value 171
measured_metric: SBP (mmHg)
Give bare numbers, in mmHg.

[Q] Recorded SBP of c1ccn2c(=Nc3ccncc3)snc2c1 , please.
[A] 181

* * *

Tested on: conscious dogs (beagles)
Assay: Effect on heart rate and arterial blood pressure of conscious dogs
Assay type: in vivo, dog
Settings: methyl cellulose 1% + 2% DMSO, 24 mg/kg oral, 240 min; preliminary value 70
measured_metric: DBP (mmHg)
Answers are plain numbers, in mmHg.

[Q] Form field: reported DBP of c1ccn2c(=Nc3ccncc3)snc2c1
[A] 62

* * *

Biological target: PDE IV
Test: PDE IV inhibition, isolated human enzyme preparations
Settings: isolated human enzyme preparation
measured_metric: pIC50
One number for each entry, as −log10 of the molar value.

[Q] What pIC50 value was documented for this compound, c1ccn2c(=Nc3ccncc3)snc2c1 [Example 2b] ?
[A] 4.70

* * *

Test system: conscious dogs (beagles)
Experiment: Effect on heart rate and arterial blood pressure of conscious dogs
Format: in vivo, dog
Details: edible oil + 2% DMSO, 24 mg/kg oral, 300 min; preliminary value 79
measured_metric: HR (beats/min)
One number for each entry, in beats/min.

[Q] HR of c1ccn2c(=Nc3ccncc3)snc2c1 on conscious dogs (beagles)?
[A] 92

* * *

Tested on: conscious dogs (beagles)
Test: Effect on heart rate and arterial blood pressure of conscious dogs
Type: in vivo, dog
Conditions: edible oil + 2% DMSO, 24 mg/kg oral, 60 min; preliminary value 111
measured_metric: MAP (mmHg)
Numbers only, in mmHg.

[Q] Query (compound): c1ccn2c(=Nc3ccncc3)snc2c1 ; field requested: MAP
[A] 109

* * *

System: conscious dogs (beagles)
Test: Effect on heart rate and arterial blood pressure of conscious dogs
Format: in vivo, dog
Conditions: methyl cellulose 1% + 2% DMSO, 24 mg/kg oral, 180 min; preliminary value 114
measured_metric: MAP (mmHg)
One number for each entry, in mmHg.

[Q] Would you mind telling me what MAP value was observed for c1ccn2c(=Nc3ccncc3)snc2c1 ?
[A] 114

* * *

System: conscious dogs (beagles)
Assay: Effect on heart rate and arterial blood pressure of conscious dogs
Assay type: in vivo, dog
Details: edible oil + 2% DMSO, 24 mg/kg oral, 240 min; preliminary value 171
measured_metric: SBP (mmHg)
Numbers only, in mmHg.

[Q] I would be grateful if you could share the reported SBP for c1ccn2c(=Nc3ccncc3)snc2c1 .
[A] 169

* * *

System: conscious dogs (beagles)
Assay: Effect on heart rate and arterial blood pressure of conscious dogs
Type: in vivo, dog
Settings: methyl cellulose 1% + 2% DMSO, 24 mg/kg oral, 60 min; preliminary value 114
measured_metric: MAP (mmHg)
One number for each entry, in mmHg.

[Q] Tell me the measured MAP of c1ccn2c(=Nc3ccncc3)snc2c1 , please.
[A] 114

* * *

Test system: conscious dogs (beagles)
Assay: Effect on heart rate and arterial blood pressure of conscious dogs
Type: in vivo, dog
Conditions: edible oil + 2% DMSO, 24 mg/kg oral, 240 min; preliminary value 111
Method: The behaviour of the dogs was normal. Effect on heart rate and on arterial blood pressure of conscious dogs after oral administration of 24 mg/kg of the compound of […]
measured_metric: MAP (mmHg)
Numbers only, in mmHg.

[Q] Param item = c1ccn2c(=Nc3ccncc3)snc2c1 [Example 2b] ; retrieve measured MAP.
[A] 109

Reference source: patent US6326378A
